- Target of assay: ADRBK2 (human)
- Experiment: radiometric filter-binding kinase assay, Kinase HotSpot
- Details: compound 0.5 µM; ATP 10 µM
Assay readout: residual activity (%)
Field: numeric (%). Do not append units.

Answered examples (6):
Exercise: I would be grateful if you could share the reported residual activity for N#C/C(=C(/N)Sc1ccc(N)cc1)c1ccccc1C(F)(F)F .
Solution: 101

Exercise: I would be grateful if you could share the reported residual activity for O=C1NC(=O)c2c1c1c3ccccc3n3c1c1c2c2ccccc2n1C1CCC3O1 .
Solution: 101

Exercise: I would be grateful if you could share the reported residual activity for Cc1ccc(S(=O)(=O)/C=C/C#N)cc1 .
Solution: 99.1

Exercise: I would be grateful if you could share the reported residual activity for O=C(Nc1cccc(Nc2nccc(Nc3cccc(C(F)(F)F)c3)n2)c1)C1CC1 .
Solution: 93.1

Exercise: I would be grateful if you could share the reported residual activity for O=C1Nc2ccc(Cl)cc2/C1=C/c1cc(Cl)c(O)c(Cl)c1 .
Solution: 102

Exercise: I would be grateful if you could share the reported residual activity for CNc1cc2c(Nc3cccc(Br)c3)ncnc2cn1 .
Solution: 101

Next:
Exercise: I would be grateful if you could share the reported residual activity for COc1cc2ncnc(Nc3cccc(Cl)c3)c2cc1OC .
Solution: 99.9

Exercise: I would be grateful if you could share the reported residual activity for O=C1NC(=O)/C(=C/c2ccc3c(c2)OC(F)(F)O3)S1 .
Solution: 102
